Origin of measurements: ChEMBL document CHEMBL3856263

Listed below: pIC50 values for each entry.
assay: Antiinflammatory activity against LPS-induced mouse RAW264.7 cells assessed as inhibition of NO production pretreated for 1 hr followed by LPS stimulation for 24 hrs by Griess assay; assay type: functional, cell-based
pIC50: −log10 of the molar value.

Answered cases to consult:
C=C1CC=C[C@@]2(C)C[C@@]3(O)OC(=O)C(C)=C3C[C@H]12    < 4.60
CC(=O)O[C@H]1C2=C(C)C(=O)O[C@@]2(O)C[C@@]2(C)[C@@H]3C[C@@H]3[C@](C)(O)[C@@H]12    4.89
CC1=C2[C@@H]3OC(=O)[C@@]4(CC/C=C(\C)C[C@@]2(O)OC1=O)O[C@@H]34    < 4.60

# next compound below
Annotate the compound COC(=O)/C(C)=C1\C(=O)O[C@]2(C)[C@@H]3C[C@@H]3[C@@](C)(CO)[C@H]2[C@@H]1O with its measured pIC50.
< 4.60

----------
assay: Antiinflammatory activity against LPS-induced mouse RAW264.7 cells assessed as inhibition of NO production pretreated for 1 hr followed by LPS stimulation for 24 hrs by Griess assay; format: functional, cell-based
endpointLabel: IC50 (µM)
Provide the reading as a plain figure in µM.

Answered cases to consult:
CC1=C2C(=O)[C@@H]3[C@](C)(O)[C@H]4C[C@H]4[C@@]3(C)C[C@H]2OC1=O    22.5
CC1=C2C[C@@H]3[C@@](C)(O)[C@H]4C[C@H]4[C@]3(C)C[C@]2(O)OC1=O    9.6

Annotate the molecule N=C(N)NN with its measured IC50.
18.4

Annotate the molecule C=C1[C@H]2CC3=C(C)C(=O)O[C@H]3C[C@]2(C)[C@H]2C[C@@H]12 with its measured IC50.
15.4

Annotate the molecule CO[C@@]1(C)[C@H]2C[C@H]2[C@]2(C)C[C@@H]3OC(=O)C(C)=C3C[C@@H]21 with its measured IC50.
6.3

Annotate the molecule C=C1[C@H]2C[C@H]2[C@]2(C)C[C@H]3OC(=O)C(C)=C3[C@H](O)[C@H]12 with its measured IC50.
12.3

Annotate the molecule C=C1Cc2occ(C)c2C2C=C(CC[C@H]1O)C(=O)O2 (stereo not given in full) with its measured IC50.
9

Annotate the molecule CC1=C2[C@H](O)[C@@H]3[C@@](C)(O)[C@H]4C[C@H]4[C@]3(C)C[C@]2(O)OC1=O with its measured IC50.
14.6

Annotate the molecule C=C1[C@H]2C[C@H]2[C@]2(C)C[C@@]3(O)OC(=O)C(C)=C3[C@H](OC)[C@H]12 with its measured IC50.
21.6
